Listing of entries alongside the reported % inhibition.
- Test system: human PKK mRNA
- Assay overview: Antisense inhibition of human PKK mRNA in HepaRG cells, 1,000 nM, MOE/deoxy/cEt oligonucleotides (Example 3)
- Type: cell-based
- Reported conditions: Table 21 experiment; HepaRG cells, electroporation with 1,000 nM antisense oligonucleotide, approx. 24 hours; PKK mRNA by RT-PCR (RTS3454), relative to untreated control cells
Strand notation (5' to 3'): a small letter for the sugar, then the base; units joined by * are phosphorothioate-linked, units joined directly phosphodiester-linked; [ ] holds rarer units or linkages, { } end groups; capitals alone tell only the bases. e = 2'-O-(2-methoxyethyl) (MOE); k = constrained ethyl (cEt); [5mC] = 5-methylcytosine; d = 2'-deoxy (DNA)
Measurement kind: % inhibition (%)

- 547797 (antisense eA*eG*k[5mC]*dT*dA*d[5mC]*dA*dT*d[5mC]*d[5mC]*d[5mC]*d[5mC]*dA*k[5mC]*k[5mC]*eT) [compound 547797]: 33
- 547767 (antisense eT*eG*kG*dA*dG*dG*dT*dG*dA*dG*dT*d[5mC]*dT*k[5mC]*kT*eT) [compound 547767]: 74
- 547841 (antisense e[5mC]*eA*k[5mC]*dA*dT*dT*dG*d[5mC]*dT*dT*d[5mC]*dA*dA*kG*kG*eA) [compound 547841]: 42

###

- Tested on: human PKK mRNA
- Assay overview: Dose-dependent antisense inhibition of human PKK in HepaRG cells, 0.19-5.00 uM (Example 5)
- Format: cell-based
- Reported conditions: 0.56 μM, HepaRG cells, electroporation, approximately 16 hours; Table 35
Strand notation (5' to 3'): a small letter for the sugar, then the base; units joined by * are phosphorothioate-linked, units joined directly phosphodiester-linked; [ ] holds rarer units or linkages, { } end groups; capitals alone tell only the bases. e = 2'-O-(2-methoxyethyl) (MOE); [5mC] = 5-methylcytosine; d = 2'-deoxy (DNA)
So basically: percent inhibition of PKK at 0.56 μM at 50% or higher? That is YES. Lower than 50%? That is NO.

* 531231 (eT*eA*eT*e[5mC]*eA*d[5mC]*dT*dG*dT*dA*d[5mC]*dT*dA*dG*dT*eT*eT*e[5mC]*e[5mC]*eT) [compound 531231] | NO
* 547602 (antisense eT*e[5mC]*eA*e[5mC]*eT*dG*dT*dA*d[5mC]*d[5mC]*dT*dA*dT*dA*dA*e[5mC]*eT*e[5mC]*eT*eA) [compound 547602] | YES
* 546852 (e[5mC]*eA*eG*eT*eA*dT*d[5mC]*dA*d[5mC]*dT*dG*dT*d[5mC]*d[5mC]*dT*eA*eT*eA*eT*e[5mC]; antisense) [compound 546852] | NO
* 546889 (eG*eT*e[5mC]*e[5mC]*eT*dA*dT*dG*dT*d[5mC]*dA*d[5mC]*dT*dG*dT*eA*e[5mC]*e[5mC]*eT*eA; antisense) [compound 546889] | YES

###

- Test system: human PKK mRNA
- Assay overview: Antisense inhibition of human PKK mRNA in HepaRG cells, 3,000 nM (Example 1)
- Type: cell-based
- Reported conditions: Table 3; HepaRG cells, electroporation with 3,000 nM antisense oligonucleotide, approx. 24 hours; PKK mRNA by RT-PCR (RTS3454), relative to untreated control cells
Strand notation (5' to 3'): a small letter for the sugar, then the base; units joined by * are phosphorothioate-linked, units joined directly phosphodiester-linked; [ ] holds rarer units or linkages, { } end groups; capitals alone tell only the bases. e = 2'-O-(2-methoxyethyl) (MOE); [5mC] = 5-methylcytosine; d = 2'-deoxy (DNA)
Listing of entries alongside the reported % inhibition.
Measurement kind: % inhibition (%)

- 531089 (eA*eA*eA*eA*e[5mC]*dA*d[5mC]*d[5mC]*dA*dT*dT*dA*dA*dA*dT*e[5mC]*e[5mC]*eA*eT*eT; antisense) [compound 531089]: 45
- 531087 (e[5mC]*e[5mC]*eA*eG*eG*dT*dG*dT*dG*dG*dA*d[5mC]*dA*dG*d[5mC]*eA*eG*e[5mC]*eT*eG; antisense) [compound 531087]: 52
- 531090 (eA*e[5mC]*eA*eG*eA*dA*dA*d[5mC]*d[5mC]*dA*dT*dG*dA*dT*dG*eT*eT*eG*e[5mC]*eT; antisense) [compound 531090]: 59
- 531096 (e[5mC]*e[5mC]*e[5mC]*eA*eA*dT*dT*d[5mC]*dT*dT*dA*dG*dT*d[5mC]*d[5mC]*eT*eT*eT*eA*eA; antisense) [compound 531096]: 45
- 531107 (antisense eT*e[5mC]*eA*eA*e[5mC]*dT*d[5mC]*dA*d[5mC]*dA*d[5mC]*d[5mC]*dT*dG*dA*e[5mC]*e[5mC]*eT*eA*eA) [compound 531107]: 30
- 531099 (eT*eG*eG*eA*eT*dG*dG*dG*dT*dA*dG*dA*dG*dG*d[5mC]*e[5mC]*eT*eT*eT*e[5mC]; antisense) [compound 531099]: 64
- 531155 (antisense e[5mC]*eT*eT*e[5mC]*eT*dT*dG*dT*d[5mC]*dT*d[5mC]*dA*dG*dA*dT*eT*eA*e[5mC]*e[5mC]*eA) [compound 531155]: 79
- 531122 (antisense eT*eA*eA*e[5mC]*eA*dA*dA*dA*dA*dT*dG*d[5mC]*d[5mC]*dT*dT*eG*eT*eG*e[5mC]*e[5mC]) [compound 531122]: 33
- 531153 (antisense e[5mC]*eT*eA*eG*eA*dA*dG*d[5mC]*dA*dA*dT*dA*dT*dT*dT*eA*eA*eA*eG*e[5mC]) [compound 531153]: 0
- 531137 (antisense eT*eG*eT*e[5mC]*eT*dA*d[5mC]*dT*dA*dT*dT*dT*dG*dA*d[5mC]*e[5mC]*eA*eA*eT*eA) [compound 531137]: 19
- 531095 (e[5mC]*eT*eA*eA*e[5mC]*dA*dA*d[5mC]*d[5mC]*d[5mC]*d[5mC]*dA*d[5mC]*dA*dA*eT*eA*eT*e[5mC]*eA; antisense) [compound 531095]: 20
